Consider the following Ki values measured on Prothrombin (Homo sapiens).
Measurement Name: Ki (nM)

Consider the reported Ki for these molecules:
{"Smiles Repr": "CN(C)C(=O)NCCC1CCN(C(=O)[C@H](Cc2nc3ccccc3s2)NS(=O)(=O)c2cccc3c2NCC(C)(C)C3)CC1", "Quantitative Result": 1000}
{"Smiles Repr": "CN(C)CCC1CCN(C(=O)[C@H](Cc2nc3ccccc3s2)NS(=O)(=O)c2cccc3c2NCC(C)(C)C3)CC1", "Quantitative Result": 38300}
{"Smiles Repr": "CC1(C)CNc2c(cccc2S(=O)(=O)N[C@@H](Cc2nc3ccccc3s2)C(=O)N2CCN(CCO)CC2)C1", "Quantitative Result": 350}
{"Smiles Repr": "CNC(=O)OCCC1CCN(C(=O)[C@H](Cc2nc3ccccc3s2)NS(=O)(=O)c2cccc3c2NCC(C)(C)C3)CC1", "Quantitative Result": 38}
{"Smiles Repr": "CC1(C)CNc2c(cccc2S(=O)(=O)N[C@@H](Cc2nc3ccccc3s2)C(=O)N2CCC(CCF)CC2)C1", "Quantitative Result": 26}

a. CNS(=O)(=O)NCCC1CCN(C(=O)[C@H](Cc2nc3ccccc3s2)NS(=O)(=O)c2cccc3c2NCC(C)(C)C3)CC1
b. CCCCNC(=O)NCCC1CCN(C(=O)[C@H](Cc2nc3ccccc3s2)NS(=O)(=O)c2cccc3c2NCC(C)(C)C3)CC1
c. CC1(C)CNc2c(cccc2S(=O)(=O)N[C@@H](Cc2nc3ccccc3s2)C(=O)N2CCC(CCO)CC2)C1
Query :: Sort entries by Ki from minimum to maximum value. A ranking is expressed here by listing the labels in the requested order.
Result :: c, a, b
(c: 79 nM, a: 119 nM, b: 182 nM)

I. CC1(C)CNc2c(cccc2S(=O)(=O)N[C@@H](Cc2nc3ccccc3s2)C(=O)N2CCC(CCCl)CC2)C1
II. CC(=O)NCCC1CCN(C(=O)[C@H](Cc2nc3ccccc3s2)NS(=O)(=O)c2cccc3c2NCC(C)(C)C3)CC1
Query :: Rank I against II by their Ki values and give the higher one. Your answer should be the label of the entry you select.
Result :: II
